Provide the reported IC50 of each item.
- TEST SYSTEM: UDP-glucuronosyltransferase 1A1 (Homo sapiens)
- Sequence (P22309 whole entry): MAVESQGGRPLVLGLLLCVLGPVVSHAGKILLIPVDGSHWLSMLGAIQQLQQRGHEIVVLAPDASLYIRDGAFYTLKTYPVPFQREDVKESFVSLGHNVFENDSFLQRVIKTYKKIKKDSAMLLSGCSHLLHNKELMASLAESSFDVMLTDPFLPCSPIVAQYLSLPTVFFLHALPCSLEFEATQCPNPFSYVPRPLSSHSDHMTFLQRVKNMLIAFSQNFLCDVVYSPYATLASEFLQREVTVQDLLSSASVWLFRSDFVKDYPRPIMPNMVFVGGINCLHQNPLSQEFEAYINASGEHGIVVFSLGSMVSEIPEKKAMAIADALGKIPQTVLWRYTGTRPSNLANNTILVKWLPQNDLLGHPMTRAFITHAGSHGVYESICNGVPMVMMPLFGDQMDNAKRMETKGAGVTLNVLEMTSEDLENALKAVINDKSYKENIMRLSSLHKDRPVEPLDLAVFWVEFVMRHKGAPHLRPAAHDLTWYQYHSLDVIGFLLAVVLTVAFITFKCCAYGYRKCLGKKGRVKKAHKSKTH
- ASSAY OVERVIEW: Inhibition of human recombinant UGT1A1 expressed in HEK293 cells assessed as reduction in estradiol 3-glucuronidation by LC-MS/MS method
- Assay type: ADME, cell-based
- SETUP CONDITIONS: read-out: IC50
Numbers only, in µM.

Worked cases, answers included:
IN: Please provide the recorded IC50 for Cc1cc(=O)oc2cc(O)ccc12 , tested on UDP-glucuronosyltransferase 1A1 (Homo sapiens).
OUT: 100

IN: Please provide the recorded IC50 for Cc1nnc(C(=O)NC(C)(C)c2nc(C(=O)NCc3ccc(F)cc3)c(O)c(=O)n2C)o1 , tested on UDP-glucuronosyltransferase 1A1 (Homo sapiens).
OUT: 190

IN: Please provide the recorded IC50 for CC(C)=CCC/C(C)=C/CC/C(C)=C/CO , tested on UDP-glucuronosyltransferase 1A1 (Homo sapiens).
OUT: 40

Respectfully, I request IC50 for each entry included below.
1. Nc1nc2ccc(OC(F)(F)F)cc2s1
2. O=C1NC(=O)C(c2ccccc2)(c2ccc(O)cc2)N1 (configuration not stated)
3. O=c1c(-c2ccc(O)cc2)coc2cc(O)ccc12
4. O=C(O)c1cccnc1Nc1cccc(C(F)(F)F)c1

OUT:
1: 160; 2: 110; 3: 120; 4: 13
